- Run description: AUC (0 to 24 hrs) in Sprague-Dawley rat plasma at 30 mg/kg, po
- Assay type: ADME, organism-based
- Parameters: time < 24 hr, route oral, dose 30 mg/kg
Property name: AUC(0-t) at 24 h (µg·h/mL)
Lab book: enter the figure in µg·h/mL, no units written.

Task: Consider the molecule `N#Cc1ccc(Cl)cc1S(=O)(=O)Nc1ccc(-c2ncc3c(N)n[nH]c3n2)cc1` and give its measured AUC(0-t) at 24 h.
Output: 110

====

- Assayed system: Serine/threonine-protein kinase Sgk1 (Homo sapiens)
- Sequence (O00141 whole entry): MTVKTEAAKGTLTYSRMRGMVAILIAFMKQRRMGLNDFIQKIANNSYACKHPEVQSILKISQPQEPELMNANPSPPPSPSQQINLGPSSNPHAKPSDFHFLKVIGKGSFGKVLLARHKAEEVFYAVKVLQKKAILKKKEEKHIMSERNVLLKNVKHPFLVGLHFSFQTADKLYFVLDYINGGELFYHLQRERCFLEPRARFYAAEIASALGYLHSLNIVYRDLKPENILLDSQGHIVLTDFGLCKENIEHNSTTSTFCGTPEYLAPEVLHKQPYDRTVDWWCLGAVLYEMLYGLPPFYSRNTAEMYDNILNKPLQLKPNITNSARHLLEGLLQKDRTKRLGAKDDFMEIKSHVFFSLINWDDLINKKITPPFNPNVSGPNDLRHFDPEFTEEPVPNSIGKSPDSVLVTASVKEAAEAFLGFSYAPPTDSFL
- Run description: Inhibition of recombinant human SGK1 expressed in baculovirus expression system using 5-carboxyfluorescein -RPRAATF-NH2 as substrate preincubated for 30 mins followed by substrate addition in presence of 10 uM ATP and measured after 60 mins by microfluidics assay
Property name: pIC50
In textbook form, pIC50 equals minus log to base ten of the concentration in mol/L.

Here is how some molecules turned out for pIC50.
O=C(NC1CCN(C2CC2)C1)c1cc(-c2ccc(NS(=O)(=O)c3cccc(Cl)c3Cl)cc2)nc2[nH]ncc12 (racemic)
8.22
O=C(NCCc1cc[nH]n1)c1cc(-c2ccc(NS(=O)(=O)c3cccc(Cl)c3Cl)cc2)nc2[nH]ncc12
8.00
Cc1n[nH]c2nc(-c3ccc(NS(=O)(=O)c4cc(Cl)ccc4F)cc3)nc(OCC(F)(F)CN)c12
8.52
Cc1n[nH]c2nc(-c3ccc(NS(=O)(=O)c4cc(Cl)ccc4F)cc3)nc(OC3CCN(C(C)C)CC3)c12
8.70

Task: Consider the molecule O=C(NC1CCN(CC2CC2)C1)c1cc(-c2ccc(NS(=O)(=O)c3cccc(Cl)c3Cl)cc2)nc2[nH]ncc12 (racemic) and give its measured pIC50.
Output: 9.00

Task: Here is the next molecule: `O=C(c1cc(-c2ccc(NS(=O)(=O)c3cccc(Cl)c3Cl)cc2)nc2[nH]ncc12)N1CCNCC1`
Output: 8.70

Task: Here is the next molecule: `Cc1n[nH]c2nc(-c3ccc(NS(=O)(=O)c4cc(Cl)ccc4F)cc3)nc(Oc3ccc(N)nc3)c12`
Output: 8.40

Task: Here is the next molecule: `Cc1n[nH]c2nc(-c3ccc(NS(=O)(=O)c4cc(Cl)ccc4F)cc3)nc(OC3CCN(CC(F)(F)F)CC3)c12`
Output: 7.26

Task: Here is the next molecule: Cc1n[nH]c2nc(-c3ccc(NS(=O)(=O)c4cc(Cl)ccc4F)cc3)nc(OC3CCNCC3F)c12 (stereo unspecified)
Output: 9.00

Task: Here is the next molecule: `O=C(NCc1ncn[nH]1)c1cc(-c2ccc(NS(=O)(=O)c3cccc(Cl)c3Cl)cc2)nc2[nH]ncc12`
Output: 9.00

Task: Here is the next molecule: `Cc1n[nH]c2nc(-c3ccc(NS(=O)(=O)c4cc(Cl)ccc4F)cc3)nc(OC3CCN(C4CC4)CC3)c12`
Output: 8.70

Task: Here is the next molecule: `CC(C)NC(=O)c1cc(-c2ccc(NS(=O)(=O)c3cccc(Cl)c3Cl)cc2)nc2[nH]ncc12`
Output: 7.17

====

- Run description: Metabolic stability in human liver microsomes assessed as compound degradation in presence of NADPH measured after 20 mins
- Assay type: ADME, Microsome
- Condition label: read-out: Drug degradation
Property name: metabolised at 20 min (%)
Lab book: enter the figure in %, no units written.

Here is how some compounds turned out for metabolised at 20 min.
Cc1n[nH]c2nc(-c3ccc(NS(=O)(=O)c4cc(Cl)ccc4F)cc3)nc(OC3CCN(C4CC4)CC3)c12
19
N#Cc1ccc(Cl)cc1S(=O)(=O)Nc1ccc(-c2ncc3c(N)n[nH]c3n2)cc1
3
O=S(=O)(Nc1ccc(-c2nc(O[C@H]3CC[C@H](O)CC3)c3cn[nH]c3n2)cc1)c1cc(Cl)ccc1F
13

We next turn to a different compound, shown below.
Task: Consider the compound `Cc1n[nH]c2nc(-c3ccc(NS(=O)(=O)c4cc(Cl)ccc4F)cc3)nc(OC3CCN(C(C)C)CC3)c12` and give its measured metabolised at 20 min.
Output: 9
